# Tested on: E31 (patient-derived glioblastoma stem cells of proneural subtype)
# TEST_NAME: surviving fraction (nuclei count normalised to DMSO); higher = more cells surviving (less toxic);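 also: nuclei counted by high-content imaging of Hoechst-stained cells in laminin-coated 384-well plates, relative to 0.1% DMSO vehicle wells, with staurosporine as cell-death control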
# ASSAY_CONDITIONS: 37 nM; exposure time: 72 h
Where a name gives a salt, the structure may show the parent alone.
MEASURED_PROPERTY: surviving fraction

• CC(C)N1CCN(c2ccc(OCC3COC(Cn4cncn4)(c4ccc(Cl)cc4Cl)O3)cc2)CC1 (stereo not given) = 0.922
• COC(=O)C1=C(C)NC(C)=C(C(=O)OCC(C)C)C1c1ccccc1[N+](=O)[O-] (stereo not given) = 0.886
• CCC1=C[C@@H]2CN(C1)Cc1c([nH]c3ccccc13)[C@@](C(=O)OC)(c1cc3c(cc1OC)N(C)[C@H]1[C@@](O)(C(=O)OC)[C@H](OC(C)=O)[C@]4(CC)C=CCN5CC[C@]31[C@@H]54)C2 [Vinorelbine Tartrate] = 0.749
• CN[C@@H]1[C@@H](O)[C@@H](O[C@@H]2[C@@H](O)[C@H](O[C@H]3OC(CN)=CC[C@H]3N)[C@@H](N)C[C@H]2N)OC[C@]1(C)O [Sisomicin sulfate] = 0.996
• COc1cc2c[n+](C)c3c4cc5c(cc4ccc3c2cc1OC)OCO5 [Nitidine chloride] = 0.804

====

# Tested on: E13 (patient-derived glioblastoma stem cells of classical subtype)
# TEST_NAME: surviving fraction (nuclei count normalised to DMSO); higher = more cells surviving (less toxic)
# ASSAY_CONDITIONS: 12.3 nM; exposure time: 72 h
Where a name gives a salt, the structure may show the parent alone.
Known surviving fraction of a selection of compounds
MEASURED_PROPERTY: surviving fraction

* CCC[C@@H]1C[C@@H](C(=O)N[C@@H]([C@H]2O[C@H](SC)[C@H](O)[C@@H](O)[C@H]2O)[C@@H](C)O)N(C)C1 [Lincomycin hydrochloride] | 0.912
* Cc1cc(Nc2cc(CN3CCOCC3)c3nc(C)c(Cc4ccc(Cl)cc4F)n3n2)n[nH]1 | 0.923
* C[C@H](Cc1cc2c(c(C(N)=O)c1)N(CCCO)CC2)NCCOc1ccccc1OCC(F)(F)F | 0.889
* C=CC(=O)Nc1cccc(Oc2nc(Nc3ccc(N4CCN(C)CC4)cc3)nc3ccsc23)c1 | 0.915
* Oc1c(Cl)cc(Cl)c(Cl)c1Cc1c(O)c(Cl)cc(Cl)c1Cl | 0.908

====

# Tested on: E28 (patient-derived glioblastoma stem cells of classical subtype)
# TEST_NAME: surviving fraction (nuclei count normalised to DMSO); higher = more cells surviving (less toxic)
# ASSAY_CONDITIONS: 3000 nM; exposure time: 72 h
Counter-ions that a name gives are not always drawn.
If the reported surviving fraction equals or exceeds 1, assign satisfied. If not, assign not satisfied.

• O=C1CCc2cc(OCCCCc3nnnn3C3CCCCC3)ccc2N1 = not satisfied
• Cc1cc(C(C)(C)CC(C)(C)C)ccc1OCCOCC[N+](C)(C)Cc1ccccc1 [Methyl benzethonium chloride] = not satisfied
• Oc1c(Cl)cc(Cl)c(Cl)c1Cc1c(O)c(Cl)cc(Cl)c1Cl = not satisfied
• Cc1ccc2c(c1)C1(CCN(CCc3nc(-c4ccccc4)oc3C)CC1)OC(=O)N2 = satisfied
• CN(C)CCN(Cc1ccc(Cl)cc1)c1ccccn1 [Chloropyramine hydrochloride] = satisfied
• CC[C@@H]1C(=O)N(C)c2cnc(Nc3ccc(C(=O)N[C@H]4CC[C@H](N5CCN(CC6CC6)CC5)CC4)cc3OC)nc2N1C(C)C = not satisfied
• CSc1ccc2c(c1)N(CCC1CCCCN1C)c1ccccc1S2 (configuration not stated) [Thioridazine hydrochloride] = satisfied
